// reported surface tension liquid-gas for each item listed
Settings: 323.2 K, Wilhelmy Plate
measured-quantity: surface tension liquid-gas (mN/m)

* C[N+](C)(C)C.NCC(=O)[O-] [tetramethylammonium glycinate] | 53.9
* CCCCn1cc[n+](C)c1.NCCCC[C@H](N)C(=O)[O-] [1-butyl-3-methylimidazolium L-lysinate] | 44.2
* CC(O)CN(C)C (centres undefined) [1-(dimethylamino)-2-propanol] | 21.3
* CCCCn1cc[n+](C)c1.NCC(=O)[O-] [1-butyl-3-methylimidazolium glycinate] | 41.7

* * *

Details: 318.2 K, Wilhelmy Plate
// reported surface tension liquid-gas for each item listed
measured-quantity: surface tension liquid-gas (mN/m)

* C[N+](C)(C)C.NCC(=O)[O-] [tetramethylammonium glycinate] | 54.5
* CCCCn1cc[n+](C)c1.NCCCC[C@H](N)C(=O)[O-] [1-butyl-3-methylimidazolium L-lysinate] | 44.7
* CC(O)CN(C)C (centres undefined) | 22
* CCCCn1cc[n+](C)c1.NCC(=O)[O-] [1-butyl-3-methylimidazolium glycinate] | 42.1

* * *

Experiment: wn = mass fraction of the nth substance listed
Conditions: 313.2 K, Wilhelmy Plate, w1 = 0.4
measured-quantity: surface tension liquid-gas (mN/m)

- C[N+](C)(C)C.NCC(=O)[O-] [tetramethylammonium glycinate] + O: 57.1
- CCCCn1cc[n+](C)c1.NCC(=O)[O-] [1-butyl-3-methylimidazolium glycinate] + O: 44.6
- CC(O)CN(C)C (centres undefined) [1-(dimethylamino)-2-propanol] + O: 32.1
- CCCCn1cc[n+](C)c1.NCCCC[C@H](N)C(=O)[O-] [1-butyl-3-methylimidazolium L-lysinate] + O: 46.8

* * *

Settings: 308.2 K, Wilhelmy Plate
Numbers after ± are expanded uncertainties.
measured-quantity: surface tension liquid-gas

• CCCCn1cc[n+](C)c1.NCC(=O)[O-] [1-butyl-3-methylimidazolium glycinate] = 42.6 ± 0.5 mN/m
• CC(O)CN(C)C (centres undefined) = 23.2 ± 0.4 mN/m
• CCCCn1cc[n+](C)c1.NCCCC[C@H](N)C(=O)[O-] [1-butyl-3-methylimidazolium L-lysinate] = 45.5 ± 0.5 mN/m
• C[N+](C)(C)C.NCC(=O)[O-] [tetramethylammonium glycinate] = 55.6 ± 0.4 mN/m

* * *

Assay: wn = mass fraction of the nth substance listed
Conditions: 323.2 K, Wilhelmy Plate, w1 = 0.4
// reported surface tension liquid-gas for each item listed
measured-quantity: surface tension liquid-gas (mN/m)

• CCCCn1cc[n+](C)c1.NCCCC[C@H](N)C(=O)[O-] [1-butyl-3-methylimidazolium L-lysinate] + O = 45.1
• C[N+](C)(C)C.NCC(=O)[O-] [tetramethylammonium glycinate] + O = 56
• CC(O)CN(C)C (centres undefined) [1-(dimethylamino)-2-propanol] + O = 30.9
• CCCCn1cc[n+](C)c1.NCC(=O)[O-] [1-butyl-3-methylimidazolium glycinate] + O = 43

* * *

Experiment: wn = mass fraction of the nth substance listed
Settings: 318.2 K, Wilhelmy Plate, w1 = 0.4
// reported surface tension liquid-gas for each item listed
measured-quantity: surface tension liquid-gas (mN/m)

• CCCCn1cc[n+](C)c1.NCCCC[C@H](N)C(=O)[O-] [1-butyl-3-methylimidazolium L-lysinate] + O = 45.9
• CC(O)CN(C)C (centres undefined) [1-(dimethylamino)-2-propanol] + O = 31.5
• CCCCn1cc[n+](C)c1.NCC(=O)[O-] [1-butyl-3-methylimidazolium glycinate] + O = 43.8
• C[N+](C)(C)C.NCC(=O)[O-] [tetramethylammonium glycinate] + O = 56.5

* * *

Settings: 313.2 K, Wilhelmy Plate
// reported surface tension liquid-gas for each item listed
measured-quantity: surface tension liquid-gas (mN/m)

• CCCCn1cc[n+](C)c1.NCCCC[C@H](N)C(=O)[O-] [1-butyl-3-methylimidazolium L-lysinate] = 45.1
• CCCCn1cc[n+](C)c1.NCC(=O)[O-] [1-butyl-3-methylimidazolium glycinate] = 42.4
• C[N+](C)(C)C.NCC(=O)[O-] [tetramethylammonium glycinate] = 55.1
• CC(O)CN(C)C (centres undefined) = 22.6
